Reported remaining activity at 10 µM is given for each of the following molecules.
- system: tau protein (Homo sapiens)
- Construct: fused on or other part: Split fluorescent-protein halves for BiFC are fused to tau; In the published tau-BiFC line these are Venus VN173 and VC155
- Sequence (P10636 2-441 isoform P10636-8 limits assumed): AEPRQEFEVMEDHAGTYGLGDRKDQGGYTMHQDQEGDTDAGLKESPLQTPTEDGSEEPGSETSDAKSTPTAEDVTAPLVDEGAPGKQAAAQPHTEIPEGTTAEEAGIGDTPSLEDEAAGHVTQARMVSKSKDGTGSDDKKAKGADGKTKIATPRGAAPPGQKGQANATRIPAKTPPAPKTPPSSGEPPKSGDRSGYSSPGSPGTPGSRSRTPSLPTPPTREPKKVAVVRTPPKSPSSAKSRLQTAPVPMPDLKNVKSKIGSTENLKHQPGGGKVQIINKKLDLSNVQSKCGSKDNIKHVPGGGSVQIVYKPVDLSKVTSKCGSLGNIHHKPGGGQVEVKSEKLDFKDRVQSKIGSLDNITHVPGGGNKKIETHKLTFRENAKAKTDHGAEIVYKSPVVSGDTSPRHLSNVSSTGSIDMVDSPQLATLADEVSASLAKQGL
- method: Tau-BiFC cell model: inhibition of tau protein aggregation
- Assay type: cell-based
- assay setup: 48 h; compound 10 μM; BiFC fluorescence, Forskolin-only group = 100% tau protein-aggregated state; read-out: Response (% @10 μM)
- Description: In order to select novel tau protein aggregation-inhibiting substances, tau-BiFC cell model, in which formation of tau oligomers in living cells is easily observed, was used. Tau-BiFC cells were aliquoted into a 384-well plate. […] After 48 hours, nuclei in the cells were stained using Hoechst (at a treatment concentration of 2 μg/mL), and BiFC fluorescence intensity was automatically measured using Operetta (PerkinElmer) to count stained nuclei in each well out of the entire well plate. […]
recorded endpoint: remaining activity at 10 µM

                         chemical_structure  test_value
0  COc1ccc(NC(=O)c2ccc(NN=C(C#N)C#N)cc2)cc1          0%
1   Cc1cccc(C(=O)Nc2ccc(NN=C(C#N)C#N)cn2)c1          0%
2        N#CC(C#N)=NNc1ccc(Oc2ccccc2C#N)cc1          0%
3  COc1ccc(NS(=O)(=O)c2ccc(NN=C(C#N)C#N)cc2)cc1       61.2%
4           N#CC(C#N)=NNc1ccc(Oc2cccnn2)cc1          0%

----------
- System: Tau-BiFC cells
- method: Cell viability (cytotoxicity) in tau-BiFC cells, count of stained nuclei
- Assay type: cell-based
- assay setup: compound 10 μM; Forskolin-only group = 100% cell viability
- Description: In order to select novel tau protein aggregation-inhibiting substances, tau-BiFC cell model, in which formation of tau oligomers in living cells is easily observed, was used. Tau-BiFC cells were aliquoted into a 384-well plate. […] After 48 hours, nuclei in the cells were stained using Hoechst (at a treatment concentration of 2 μg/mL), and BiFC fluorescence intensity was automatically measured using Operetta (PerkinElmer) to count stained nuclei in each well out of the entire well plate. […]
recorded endpoint: Cell viability (% @10 μM) (%)

In [3]: df
Out[3]:
                                   compound          system  test_value
0  N#CC(C#N)=NNc1ccc(Oc2ccccc2)c(F)c1 [Compound 71]  Tau-BiFC cells          46
1  Cc1cc(NN=C(C#N)C#N)ccc1Oc1cccnc1 [Compound 74]  Tau-BiFC cells        92.7
2  N#CC(C#N)=NNc1ccc(OCc2ccccc2)c(C(F)(F)F)c1 [Compound 97]  Tau-BiFC cells        27.1
3  N#CC(C#N)=NNc1ccc(Oc2ccccn2)cc1 [Compound 83]  Tau-BiFC cells         104
4  Cc1cnc(NC(=O)c2ccc(NN=C(C#N)C#N)c(F)c2)cn1 [Compound 56]  Tau-BiFC cells       129.9
5  N#CC(C#N)=NNc1ccc(OCc2cnccn2)cc1 [Compound 125]  Tau-BiFC cells       140.5
6  Cc1cnc(C(=O)Nc2ccc(NN=C(C#N)C#N)nc2)cn1 [Compound 14]  Tau-BiFC cells         102
7  COc1cc(NN=C(C#N)C#N)ccc1NC(=O)c1cnc(C)cn1 [Compound 10]  Tau-BiFC cells        21.7
8  N#CC(C#N)=NNc1ccc(OCCc2ccccc2)cc1 [Compound 122]  Tau-BiFC cells        92.9
9  Cc1cnc(C(=O)Nc2ccc(NN=C(C#N)C#N)cn2)cn1 [Compound 1]  Tau-BiFC cells        94.3
